Test system: Klebsiella pneumoniae KPN+19-15
Assay type: cell-based
Details: KPN+19-15
Bridge positions count the residues as written; N and C are the ends. Square brackets hold non-standard residues; d marks the D form. Peptide text beside a SMILES is read from it. * marks the point of attachment. Octanoyl = CCCCCCCC(=O)*; dDap = NC[C@@H](N)C(=O)O; Dab = NCC[C@H](N)C(=O)O; Dap = NC[C@H](N)C(=O)O
READOUT_TYPE: MIC

Challenge: Name the value of MIC reported for CCCCCCCC(=O)N[C@@H](CCN)C(=O)N[C@H](C(=O)N[C@H](CO)C(=O)N[C@H]1CCNC(=O)[C@H]([C@@H](C)O)NC(=O)[C@H](CN)NC(=O)[C@H](CCN)NC(=O)[C@H]([C@@H](C)O)NC(=O)[C@@H](Cc2ccccc2)NC(=O)[C@H](CCN)NC1=O)[C@@H](C)O [Compound 83] (Octanoyl-[Dab]T[dS][Dab][Dab][dF]T[Dab][Dap]T; lactam 4-C) when tested on Klebsiella pneumoniae KPN+19-15.
Response given: 0.5 µg/mL

Challenge: Name the value of MIC reported for CCCCCCCC(=O)N[C@@H](CCN)C(=O)N[C@H](C(=O)N[C@@H](CCN)C(=O)N[C@H]1CCNC(=O)[C@H]([C@@H](C)O)NC(=O)[C@H](CCN)NC(=O)[C@H](CCN)NC(=O)[C@H]([C@@H](C)O)NC(=O)[C@@H](Cc2ccccc2)NC(=O)[C@H](CCN)NC1=O)[C@@H](C)O [Compound 18] (Octanoyl-[Dab]T[Dab][Dab][Dab][dF]T[Dab][Dab]T; lactam 4-C) when tested on Klebsiella pneumoniae KPN+19-15.
Response given: ≤0.03 µg/mL

Challenge: Name the value of MIC reported for CCCCCCCC(=O)N[C@@H](CCN)C(=O)N[C@H](C(=O)N[C@H](CN)C(=O)N[C@H]1CCNC(=O)[C@H]([C@@H](C)O)NC(=O)[C@H](CCN)NC(=O)[C@H](CCN)NC(=O)[C@H]([C@@H](C)O)NC(=O)[C@@H](Cc2ccccc2)NC(=O)[C@H](CCN)NC1=O)[C@@H](C)O [Compound 3] (Octanoyl-[Dab]T[dDap][Dab][Dab][dF]T[Dab][Dab]T; lactam 4-C) when tested on Klebsiella pneumoniae KPN+19-15.
Response given: ≤0.03 µg/mL

* * *

Exercise: state measured MIC for each of the compounds provided.
Tested on: Escherichia coli ATCC BAA-2523
Format: cell-based
Details: ATCC BAA-2523
Bridge positions count the residues as written; N and C are the ends. Square brackets hold non-standard residues; d marks the D form. Peptide text beside a SMILES is read from it. * marks the point of attachment. Heptanoyl(6-Me) = CC(C)CCCCC(=O)*; X1 = CC[C@H](C)CCCCC(=O)*; dDab = NCC[C@@H](N)C(=O)O; Orn = NCCC[C@H](N)C(=O)O; Dab = NCC[C@H](N)C(=O)O; Dap = NC[C@H](N)C(=O)O
Numeric only. Scale: µg/mL

Challenge: Input CC(C)CCCCC(=O)N[C@@H](CN)C(=O)N[C@H](C(=O)N[C@H](CCN)C(=O)N[C@H]1CCNC(=O)[C@H]([C@@H](C)O)NC(=O)[C@H](CCN)NC(=O)[C@H](CCN)NC(=O)[C@H](CC(C)C)NC(=O)[C@@H](Cc2ccccc2)NC(=O)[C@H](CCN)NC1=O)[C@@H](C)O [Compound 92] ({Heptanoyl(6-Me)}-[Dap]T[dDab][Dab][Dab][dF]L[Dab][Dab]T; lactam 4-C) , output reported MIC.
Response given: 0.03

Challenge: Input CC[C@H](C)CCCCC(=O)N[C@@H](CCN)C(=O)N[C@H](C(=O)N[C@@H](CCCN)C(=O)N[C@H]1CCNC(=O)[C@H]([C@@H](C)O)NC(=O)[C@H](CCN)NC(=O)[C@H](CCN)NC(=O)[C@H](CC(C)C)NC(=O)[C@@H](Cc2ccccc2)NC(=O)[C@H](CCN)NC1=O)[C@@H](C)O [Compound 46] (X1-[Dab]T[Orn][Dab][Dab][dF]L[Dab][Dab]T; lactam 4-C) , output reported MIC.
Response given: 0.03

Challenge: Input CC(C)CCCCC(=O)N[C@@H](CCN)C(=O)N[C@H](C(=O)N[C@H](CO)C(=O)N[C@H]1CCNC(=O)[C@H]([C@@H](C)O)NC(=O)[C@H](CCN)NC(=O)[C@H](CCN)NC(=O)[C@H]([C@@H](C)O)NC(=O)[C@@H](Cc2ccccc2)NC(=O)[C@H](CCCN)NC1=O)[C@@H](C)O [Compound 67] ({Heptanoyl(6-Me)}-[Dab]T[dS][Dab][Orn][dF]T[Dab][Dab]T; lactam 4-C) , output reported MIC.
Response given: 0.25
